Sourced from ChEMBL document CHEMBL1124257

Property: MIC; scope: individual compounds
test system: Streptococcus pneumoniae; assay: Minimum inhibitory concentration (MIC) against Streptococcus pneumoniae by 2-fold microdilution technique; assay type: functional; settings: Streptococcus pneumoniae; read-out: MIC
quantity_measured: MIC (µg/mL)

INSERT INTO results (compound, result_number) VALUES
  ('C/C=C/C1=C(C(=O)O)N2C(=O)[C@@H](NC(=O)[C@H](N)c3ccc(O)cc3)[C@H]2SC1.O (relative stereo; 56) [CEFPROZIL, (E)-]', 0.03),
  ('CCCC1=C(C(=O)O)N2C(=O)[C@@H](NC(=O)[C@H](N)c3ccc(O)cc3)[C@H]2CO1', 0.008),
  ('CC1=C(C(=O)O)N2C(=O)[C@@H](NC(=O)[C@H](N)c3ccccc3)[C@H]2SC1 [CEPHALEXIN ANHYDROUS]', 0.5),
  ('C=CC1=C(C(=O)O)N2C(=O)[C@@H](NC(=O)[C@H](N)c3ccc(O)cc3)[C@H]2CO1', 0.03),
  ('C=CCC1=C(C(=O)O)N2C(=O)[C@@H](NC(=O)[C@H](N)c3ccc(O)cc3)[C@H]2SC1', 0.03),
  ('N[C@@H](C(=O)N[C@@H]1C(=O)N2C(C(=O)O)=C(Cl)CS[C@H]12)c1ccccc1.O', 0.5),
  ('N[C@@H](C(=O)N[C@@H]1C(=O)N2C(C(=O)O)=C(/C=C\C(F)(F)F)OC[C@H]12)c1ccc(O)cc1 (relative stereo)', 0.016);

###

test system: Streptococcus pyogenes; test: Minimum inhibitory concentration (MIC) against Streptococcus pyogenes by 2-fold microdilution technique; assay type: functional; conditions: Streptococcus pyogenes; read-out: MIC
quantity_measured: MIC (µg/mL)

INSERT INTO measurements (compound, measurement_unit, result_number) VALUES
  ('N[C@@H](C(=O)N[C@@H]1C(=O)N2C(C(=O)O)=COC[C@H]12)c1ccc(O)cc1', 'µg/mL', 0.25),
  ('N[C@@H](C(=O)N[C@@H]1C(=O)N2C(C(=O)O)=C(Cl)CS[C@H]12)c1ccccc1.O', 'µg/mL', 0.25),
  ('C/C=C/C1=C(C(=O)O)N2C(=O)[C@@H](NC(=O)[C@H](N)c3ccc(O)cc3)[C@H]2CO1 (relative stereo)', 'µg/mL', 0.016),
  ('C=CC1=C(C(=O)O)N2C(=O)[C@@H](NC(=O)[C@H](N)c3ccc(O)cc3)[C@H]2CO1', 'µg/mL', 0.016),
  ('N[C@@H](C(=O)N[C@@H]1C(=O)N2C(C(=O)O)=C(/C=C/C(F)(F)F)OC[C@H]12)c1ccc(O)cc1', 'µg/mL', 0.008),
  ('C=CCC1=C(C(=O)O)N2C(=O)[C@@H](NC(=O)[C@H](N)c3ccc(O)cc3)[C@H]2SC1', 'µg/mL', 0.016),
  ('N[C@@H](C(=O)N[C@@H]1C(=O)N2C(C(=O)O)=C(/C=C\C(F)(F)F)OC[C@H]12)c1ccc(O)cc1 (relative stereo)', 'µg/mL', 0.008),
  ('CCCC1=C(C(=O)O)N2C(=O)[C@@H](NC(=O)[C@H](N)c3ccc(O)cc3)[C@H]2CO1', 'µg/mL', 0.004),
  ('N[C@@H](C(=O)N[C@@H]1C(=O)N2C(C(=O)O)=C(C3CC3)OC[C@H]12)c1ccc(O)cc1', 'µg/mL', 0.016),
  ('CC1=C(C(=O)O)N2C(=O)[C@@H](NC(=O)[C@H](N)c3ccccc3)[C@H]2SC1 [CEPHALEXIN ANHYDROUS]', 'µg/mL', 0.5),
  ('C=CC1=C(C(=O)O)N2C(=O)[C@@H](NC(=O)[C@H](N)c3ccc(O)cc3)[C@H]2SC1', 'µg/mL', 0.03),
  ('C/C=C/C1=C(C(=O)O)N2C(=O)[C@@H](NC(=O)[C@H](N)c3ccc(O)cc3)[C@H]2SC1.O (relative stereo; 56) [CEFPROZIL, (E)-]', 'µg/mL', 0.016),
  ('C/C=C\C1=C(C(=O)O)N2C(=O)[C@@H](NC(=O)[C@H](N)c3ccc(O)cc3)[C@H]2CO1 (relative stereo)', 'µg/mL', 0.016),
  ('CC1=C(C(=O)O)N2C(=O)[C@@H](NC(=O)[C@H](N)c3ccc(O)cc3)[C@H]2CO1', 'µg/mL', 0.13),
  ('C=CCC1=C(C(=O)O)N2C(=O)[C@@H](NC(=O)[C@H](N)c3ccc(O)cc3)[C@H]2CO1', 'µg/mL', 0.008);
